- Target or test system: Glutathione peroxidase 1 (Homo sapiens)
- Protocol: Primary qHTS Assay for Inhibitors of Recombinant Selenoprotein Glutathione Peroxidase 1 (GPX1) (AID 1845191); further: nearly all actives have a fitted effect of over 65% in size
- Test parameters: recombinant GPX1, GR-coupled NADPH fluorescence, 15 min; series mostly up to 27.7 µM
Inconclusive results are not listed. Activity calls are given as the source filed them. The call rests on the fitted dose curve; in most records, active means well fitted inhibition curve with a large enough effect; inconclusive means small, poorly fitted or top-dose-only effect; inactive means flat fitted curve, though single readings scatter.
Measured parameter: outcome

Record excerpt, results attached:
C[C@@H]1O[C@@H](O[C@H]2[C@H](Oc3cc(O)c(C(=O)CCc4ccc(O)cc4)c(O)c3)O[C@H](CO)[C@@H](O)[C@@H]2O)[C@H](O)[C@H](O)[C@H]1O	inactive
CC1(C)CC[C@]2(C(=O)O[C@@H]3O[C@H](CO)[C@@H](O)[C@H](O)[C@H]3O)CC[C@]3(C)C(=CCC4[C@@]5(C)CC[C@H](O[C@H]6O[C@H](CO)[C@@H](O)[C@H](O[C@@H]7O[C@H](CO)[C@@H](O)[C@H](O)[C@H]7O)[C@H]6O)C(C)(C)C5CC[C@]43C)[C@@H]2C1 (some centres not stated)	inactive
C=C(COC(=O)CC(C)C)C1Cc2cc(C(C)=O)ccc2O1 (configuration not stated)	inactive
CCCCOc1nc(N)c2c(n1)N(Cc1cccc(CN3CCCC3)c1)CC(=O)N2	inactive
CC/C=C\C(O)C(O)C1=C(C)C(=O)C2(O1)C(=O)NC(OC)(C(=O)c1ccccc1)C2O (configuration not stated)	inactive
COc1cc(-c2ccc(O)cc2)c(OC)c(O)c1C1=CC(=O)OC1CC(=O)O (configuration not stated)	inactive

Now for another entry.
[ask] Return outcome for the following molecule: CC1=C2C(=O)C=C(CO)C2C2OC(=O)C(CS(=O)(=O)O)C2C(OC(=O)Cc2ccc(O)cc2)C1 (configuration not stated)
[reply] inactive

====

- Target or test system: Nicotinamide N-methyltransferase (Homo sapiens) (UniProt P40261)
- Sequence (P40261 whole entry, looked up): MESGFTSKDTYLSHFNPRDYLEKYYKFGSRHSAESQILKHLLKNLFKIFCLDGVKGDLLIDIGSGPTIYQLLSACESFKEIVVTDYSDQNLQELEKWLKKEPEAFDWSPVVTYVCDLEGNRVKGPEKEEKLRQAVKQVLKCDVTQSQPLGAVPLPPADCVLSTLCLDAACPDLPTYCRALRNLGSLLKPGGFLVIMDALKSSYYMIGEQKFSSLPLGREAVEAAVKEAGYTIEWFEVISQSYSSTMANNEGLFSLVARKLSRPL
- Protocol: Confirmatory Screen for Target Class Profiling of Small Molecule Inhibitors of Methyltransferases (AID 1745852)
- Test parameters: MTase-Glo luminescence, SAH detection, recombinant enzyme; measured here: NNMT max response; stronger effect = lower value
Reported activity is given for each of the following molecules.
Your answer is read as %, so omit the unit and give the number.

See these solved cases before continuing.
OC[C@H]1O[C@@H](OCCc2ccccc2)[C@H](O[C@@H]2OC[C@@H](O)[C@H](O)[C@H]2O)[C@@H](O)[C@@H]1O	3.88
O=C(CCc1ccccc1)c1c(O)c([C@@H]2O[C@H](CO)[C@@H](O)[C@H](O)[C@H]2O)c(O)c([C@@H]2O[C@H](CO)[C@@H](O)[C@H](O)[C@H]2O)c1O	-0.132
CC1=C2CC3C(CCC3(C)O)C(C)(O)CC2OC1=O (stereo unspecified)	0
CC1OC(OC2C(OC(=O)[C@]34CCC(C)(C)C[C@H]3C3=CCC5[C@@]6(C)CC[C@H](OC7OC(C(=O)O)C(O)C(O)C7O)C(C)(C)C6CC[C@@]5(C)[C@]3(C)CC4O)OC(CO)C2O)C(O)C(O)C1OC1OCC(O)C(O)C1O (stereo partly specified)	-6.05
CC(C)(O)C1CC=C(C(=O)OC[C@H]2O[C@@H](OC(=O)C3=CCC(C(C)(C)O)CC3)[C@H](O)[C@@H](O)[C@@H]2O)CC1 (stereo partly specified)	-5.04
CC(C)=C1CC2C(CCC2(C)O)C(C)(O)CC1=O (stereo unspecified)	3.19
C=C(C(=O)O)[C@@H]1CC[C@H](C)[C@@H]2CC(=O)C(C)=C2C1	-2.63
COc1cc(/C=C/C(=O)OCC2OC(OC3(CO)OC(CO)C(O)C3O)C(O)C(O)C2O)ccc1O (stereo unspecified)	-1.16

[ask] For Nicotinamide N-methyltransferase (Homo sapiens) (UniProt P40261), give activity of the listed molecule: O=C(O)CC1CCC(c2ccc(-c3ccc(Nc4ccc(C(F)(F)F)nc4)cn3)cc2)CC1 (stereo unspecified)
[reply] -13.8

[ask] Give activity only, for `CC(C)N(CCCNC(=O)Nc1ccc(C(C)(C)C)cc1)C[C@H]1O[C@@H](n2ccc3c(N)ncnc32)[C@H](O)[C@@H]1O` , using Nicotinamide N-methyltransferase (Homo sapiens) (UniProt P40261) data.
[reply] -18.1

[ask] Fill: activity (Nicotinamide N-methyltransferase (Homo sapiens) (UniProt P40261)) for this molecule `C=Cc1cc2oc(-c3ccc(O)c(F)c3)nc2cc1O`
[reply] -39.5

[ask] GET activity where system = Nicotinamide N-methyltransferase (Homo sapiens) (UniProt P40261) and item = `COc1ccccc1CN[C@H]1CCCN[C@H]1c1ccccc1`
[reply] -6.63

[ask] Retrieve activity on Nicotinamide N-methyltransferase (Homo sapiens) (UniProt P40261); query CC(=O)OC1CC(=O)C2(C)C3CC4=C(OC(C)CC4=O)OC3(C)CCC2C1(C)C (stereo unspecified)
[reply] -81.2

====

- Tested on: Nanoluciferase (engineered Oplophorus gracilirostris luciferase)
- Protocol: Primary Nanoluciferase (NLuc) qHTS assay for identification of artifact compounds. (AID 1845222);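 further: NLuc secreted into diluted conditioned medium of S16 cells; 0% = DMSO and -100% = no enzyme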
- Test parameters: NLuc-conditioned medium, Nano-Glo luminescence, 5 min; series mostly up to 54.1 µM
Active and inactive are the calls of the source. Calls come from the whole dose curve; as a rule, active = well fitted inhibition curve with a large enough effect; inconclusive = small, poorly fitted or top-dose-only effect; inactive = flat fitted curve, though single readings scatter.
Measured parameter: activity, negative = inhibition

CC(=O)c1ccc(O[C@@H]2OC[C@@H](O)[C@H](O)[C@H]2O[C@]2(CO)O[C@H](CO)[C@@H](O)[C@@H]2O)c(O)c1	inactive
Cc1oc2nc3c(c(NC(=O)CN4CCCC4=O)c2c1C)CCCC3	inactive
O=C(/C=C/c1ccccc1)O[C@@H]1[C@@H](CO)O[C@@](CO)(O[C@H]2O[C@H](CO)[C@@H](O)[C@H](O)[C@H]2O)[C@H]1O	inactive
C[C@@H]1C[C@@H](O)[C@@]23CO[C@]2(CO)C[C@@H](O)CC3[C@@]12CC(c1ccoc1)OC2=O (stereo partly drawn)	inactive
CC(=O)/C=C/[C@H]1[C@](C)(O)[C@@H](O)[C@H](O)C2C(C)(C)CCC[C@@]21C (stereo partly drawn)	inactive

[ask] Identify activity, negative = inhibition associated with the molecule `COC(=O)C[C@@H]1C(C(=O)O)=CO[C@@H](O[C@@H]2O[C@H](CO)[C@@H](O)[C@H](O)[C@H]2O)/C1=C\COC(=O)/C=C/c1ccc(O)c(OC)c1`
[reply] inactive

[ask] Report measured activity, negative = inhibition; entry is CCC(C)C1NC(=O)C2C(C)CCN2C(=O)C(CC(O)CO)OC(=O)CCNC(=O)C(C)N(C)C(=O)C(C(C)C)N(C)C1=O (stereo not drawn)
[reply] inactive

[ask] Give a short answer stating reported activity, negative = inhibition for CC1CCC23COC(=O)C2=CC(O)CC3C1(C)CCc1ccoc1 (stereo not drawn) .
[reply] inactive

====

- Test system: Tov112D
- Protocol: Primary qHTS to identify gynecologic anti-cancer compounds using libraries of approved drugs and bioactive compounds (AID 1345084); further: on the % scale 0 is the no-effect control and ±100 the full control effect; nearly all actives have a fitted effect of over 55% in size
- Test parameters: Gynecologic cancer cell panel viability, ATPlite luminescence, 48 h; series mostly up to 57.5 µM
Inconclusive results are not listed. Active and inactive are the calls of the source. Calls follow the shape of the dose curve; as a rule, active = well fitted cell-killing curve with a large enough effect; inconclusive = small, poorly fitted or top-dose-only effect, or effect the other way; inactive = flat fitted curve, though single readings scatter. Where a SMILES comes first, the peptide text is derived from it. The star is where a group is joined. AMC = Cc1cc(=O)oc2cc(N*)ccc12; Cbz = O=C(OCc1ccccc1)*
Measured parameter: activity change, negative = cytotoxicity

Answered cases to consult:
CC1(C(=O)O)CCCC2(C)C3CCC4CC3(CCC12)CC4(O)CO (configuration not stated)	inactive
CC(C/C=C/C(C)(C)O)C1CCC(C)(O)C(O)C1 (configuration not stated)	inactive
C=C1CC[C@@]2(OC1)O[C@H]1CC3[C@@H]4CC=C5C[C@H](O[C@H]6OC[C@@H](O)C(O)[C@@H]6O[C@@H]6O[C@@H](C)[C@H](O)[C@@H](O[C@@H]7O[C@H](CO)[C@@H](O)[C@H](O)[C@H]7O)[C@H]6O)C[C@@H](O)[C@]5(C)C4CC[C@]3(C)[C@H]1[C@@H]2C (some centres not stated)	1.29% [at 11.6 µM] (inactive)
CNC(C)C(=O)NC(C(=O)N1CCCC1C(=O)Nc1cccc2ncccc12)C(C)C (configuration not stated)	inactive
Cc1cc(=O)oc2cc(NC(=O)[C@H](CCC(=O)O)NC(=O)[C@H](CC(C)C)NC(=O)[C@H](CC(C)C)NC(=O)OCc3ccccc3)ccc12 (Cbz-Leu-Leu-Glu-{AMC})	inactive

[ask] Quote Tov112D activity change, negative = cytotoxicity for entry `CC(C)C[C@H](NC(=O)[C@@H]1O[C@H]1C(=O)O)C(=O)NCCCCN=C(N)N` .
[reply] inactive

[ask] Quote activity change, negative = cytotoxicity with test system Tov112D for C=CC(C)(O)CC/C=C(\C)COC1O[C@H](CO)[C@@H](O)[C@H](O)[C@H]1O (some centres not stated)
[reply] inactive

====

- Target or test system: Glutathione peroxidase 1 (Homo sapiens)
- Protocol: Primary qHTS Assay for Inhibitors of Recombinant Selenoprotein Glutathione Peroxidase 1 (GPX1) (AID 1845191); further: nearly all actives have a fitted effect of over 65% in size
- Test parameters: recombinant GPX1, GR-coupled NADPH fluorescence, 15 min; series mostly up to 27.7 µM
- Method: Assay Provider: Elias S.J. Arner MD PhD. Department of Medical Biochemistry and Biophysics Karolinska Institutet, Solna, Stockholm, Sweden […] 5; Detection; Fluorescence; ViewLux microplate reader, excitation 340 nm and emission 450 nm. […] 7; Detection; Fluorescence; ViewLux microplate reader, excitation 340 nm and emission 450 nm. […] 5. Initial fluorescence readout (t=0) at 340/450 nm was measured using a ViewLux multimodal detector (PerkinElmer, Waltham, MA). […]
Inconclusive results are not listed. Calls of active or inactive are those of the source. Calls come from the whole dose curve; as a rule, active = well fitted inhibition curve with a large enough effect; inconclusive = small, poorly fitted or top-dose-only effect; inactive = flat fitted curve, though single readings scatter.
Measured parameter: outcome

CC(=O)O[C@@]1(C)[C@@H]2CC(=C(C)C)C(=O)C[C@@]2(C)CC[C@H]1OC(=O)C1(C)OC1C (some centres undefined)	inactive
COc1cc([C@@H](O[C@@H]2O[C@H](CO)[C@@H](O)[C@H](O)[C@H]2O)[C@@H]2CO[C@H](c3ccc(O)c(OC)c3)[C@H]2CO)ccc1O	inactive
CC(=O)/C=C/C1(O)C(C)=CC(=O)CC1(C)C (centres undefined)	inactive
O=C(OC[C@H]1O[C@H](O[C@H]2CO[C@H](CO)[C@@H](O)[C@@H]2O)[C@H](O)[C@@H](O)[C@H]1O)c1ccccc1	inactive
